- assayed_target: T1, cynomolgus monkey 5T4 antigen (cynomolgus monkey, UniProt Q4R8Y9 35-420)
- T1 construct: whole, on cells; also called cyno 5T4
- T1 sequence (looked up): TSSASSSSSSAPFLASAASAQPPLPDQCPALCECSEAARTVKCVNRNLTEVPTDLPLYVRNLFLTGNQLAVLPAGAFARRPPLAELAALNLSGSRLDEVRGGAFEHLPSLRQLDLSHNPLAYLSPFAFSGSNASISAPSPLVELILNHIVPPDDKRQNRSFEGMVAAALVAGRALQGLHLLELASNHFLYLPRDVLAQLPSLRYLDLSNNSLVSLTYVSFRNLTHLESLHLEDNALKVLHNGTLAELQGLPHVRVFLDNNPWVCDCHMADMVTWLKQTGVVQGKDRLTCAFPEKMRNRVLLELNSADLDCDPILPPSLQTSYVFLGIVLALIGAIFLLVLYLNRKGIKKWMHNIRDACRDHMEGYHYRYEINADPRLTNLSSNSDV
- protocol_summary: flow cytometry, CHOZN cells expressing cyno 5T4
The entries below come with measured EC50 values attached.
Entry rule: numbers only, all in µg/mL.

{"columns": ["binder", "unit", "EC50"],
 "data": [
  ["chimeric anti-5T4 antibody 899 with HC-41C mutation (antibody, human IgG1, V domains shown, Human IgG1 constant parts; also called chimeric 899; 899 chimeric) VH: QSVEESGGRLVTPGTPLTLTCTVSGFSLSSYTMSWVRQACGKGLEYIGIISSSDGTWYANWVKGRFTISKTSTTVDLKMTSLTTEDTATYFCARDGTGNKYYTWDRLDLWGQGTLVTVSS VL: NIVMTQTPSPVSGAVGGTVTINCQASQSIYNELSWYQQKPGQPPKLLIYYASTLASGVSSRFKGSGSGTQFTLTISGVESVDAATYYCQQGYSSSNVDNVFGGGTEVVVK", "µg/mL", 0.18],
  ["humanized anti-5T4 antibody 825b with HC-41C mutation (antibody, human IgG1, kappa, V domains shown) VH: EVQLEESGGGLVKPGGSLRLSCAASGIDLSSYGMGWVRQACGKGLEWVSIISRNSVTYYATWAKGRFTISRDNSKNTLYLQMNSLRAEDTAVYYCARRATYSGALGYFDIWGRGTLVTVSS VL: EIVMTQSPSSLSASVGDRVTITCQASENIYSTLAWYQQKPGKAPKLLIYDAFDLASGVPSRFSGSGSGTDYTLTISSLQPEDFATYYCQQGYSGTNVDNAFGQGTKLEIKR", "µg/mL", 0.46]
]}

As a next step, examine the binder that follows.
Can you share its EC50? I mean this binder: humanized anti-5T4 antibody 833d with HC-41C mutation (antibody, human IgG1, kappa, V domains shown) VH: QSLEESGGGLVQPGGSLRLSCAASGIDLSHYVVGWVRQACGKGLEWIGIIYGSGRTYYANWAKGRFTISRHNSKNTLYLQMNSLRAEDTAVYYCARDASVSVYYWGYFDLWGQGTLVTVSS VL: DIQMTQSPSSLSASVGDRVTITCQASQSIGSELAWYQQKPGQAPKLLIYRASTLESGVPSRFSGSGSGTEFTFTISSLQPEDLATYYCQQGYTYSEIDNAFGQGTKLEIKR
0.16
